- test-name: Growth inhibition of human Hs 578T cells after 48 hrs by sulforhodamine B assay
- Assay type: functional
measured-attribute: GI50 (nM)
One number for each entry, in nM.

[
  {
    "compound": "C[C@H]1[C@H](OCCO[C@H]2O[C@@H]3O[C@@]4(C)CC[C@H]5[C@H](C)CC[C@@H]([C@H]2C)[C@@]35OO4)O[C@@H]2O[C@@]3(C)CC[C@H]4[C@H](C)CC[C@@H]1[C@@]24OO3",
    "GI50 [nM]": 7650
  },
  {
    "compound": "C[C@H]1[C@@H](OCCCO[C@H]2O[C@@H]3O[C@@]4(C)CC[C@H]5[C@H](C)CC[C@@H]([C@H]2C)[C@@]35OO4)O[C@@H]2O[C@@]3(C)CC[C@H]4[C@H](C)CC[C@@H]1[C@@]24OO3",
    "GI50 [nM]": 620
  },
  {
    "compound": "C[C@H]1[C@@H](OCCO[C@H]2O[C@@H]3O[C@@]4(C)CC[C@H]5[C@H](C)CC[C@@H]([C@H]2C)[C@@]35OO4)O[C@@H]2O[C@@]3(C)CC[C@H]4[C@H](C)CC[C@@H]1[C@@]24OO3",
    "GI50 [nM]": 656
  }
]

Now consider a different compound.
The recorded GI50 for entry C[C@H]1[C@@H](OCC(CO[C@H]2O[C@@H]3O[C@@]4(C)CC[C@H]5[C@H](C)CC[C@@H]([C@H]2C)[C@@]35OO4)OC(=O)CCC(=O)O)O[C@@H]2O[C@@]3(C)CC[C@H]4[C@H](C)CC[C@@H]1[C@@]24OO3 (some centres undefined) equals 186

---

Please go through the items and note down their GI50.
- Test system: NCI/ADR-RES
- test-name: Growth inhibition of human NCI/ADR-RES cells after 48 hrs by sulforhodamine B assay
- Assay type: functional
Answers are plain numbers, in nM.

[
  {
    "compound": "C[C@H]1[C@@H](OCC(CO[C@H]2O[C@@H]3O[C@@]4(C)CC[C@H]5[C@H](C)CC[C@@H]([C@H]2C)[C@@]35OO4)OC(=O)CCC(=O)O)O[C@@H]2O[C@@]3(C)CC[C@H]4[C@H](C)CC[C@@H]1[C@@]24OO3 (some centres undefined)",
    "measured-attribute": "GI50",
    "measured-result": 207
  },
  {
    "compound": "C[C@H]1[C@@H](OCCCO[C@H]2O[C@@H]3O[C@@]4(C)CC[C@H]5[C@H](C)CC[C@@H]([C@H]2C)[C@@]35OO4)O[C@@H]2O[C@@]3(C)CC[C@H]4[C@H](C)CC[C@@H]1[C@@]24OO3",
    "measured-attribute": "GI50",
    "measured-result": 3640
  },
  {
    "compound": "C[C@H]1[C@@H](O[C@H]2CC[C@H](O[C@H]3O[C@@H]4O[C@@]5(C)CC[C@H]6[C@H](C)CC[C@@H]([C@H]3C)[C@@]46OO5)CC2)O[C@@H]2O[C@@]3(C)CC[C@H]4[C@H](C)CC[C@@H]1[C@@]24OO3",
    "measured-attribute": "GI50",
    "measured-result": 130
  }
]

Proceeding to the next compound to report its GI50.
Field GI50 (entry C[C@H]1[C@@H](OCC(O)CO[C@@H]2C[C@@H]3CC[C@@H](C)[C@@H]4CC[C@@]5(C)OO[C@@]34[C@H](O2)O5)O[C@@H]2O[C@@]3(C)CC[C@H]4[C@H](C)CC[C@@H]1[C@@]24OO3 (some centres undefined) ) reads 340
